Molecular target: Bifunctional 3'-5' exonuclease/ATP-dependent helicase WRN (Homo sapiens)
Sequence (Q14191 whole entry): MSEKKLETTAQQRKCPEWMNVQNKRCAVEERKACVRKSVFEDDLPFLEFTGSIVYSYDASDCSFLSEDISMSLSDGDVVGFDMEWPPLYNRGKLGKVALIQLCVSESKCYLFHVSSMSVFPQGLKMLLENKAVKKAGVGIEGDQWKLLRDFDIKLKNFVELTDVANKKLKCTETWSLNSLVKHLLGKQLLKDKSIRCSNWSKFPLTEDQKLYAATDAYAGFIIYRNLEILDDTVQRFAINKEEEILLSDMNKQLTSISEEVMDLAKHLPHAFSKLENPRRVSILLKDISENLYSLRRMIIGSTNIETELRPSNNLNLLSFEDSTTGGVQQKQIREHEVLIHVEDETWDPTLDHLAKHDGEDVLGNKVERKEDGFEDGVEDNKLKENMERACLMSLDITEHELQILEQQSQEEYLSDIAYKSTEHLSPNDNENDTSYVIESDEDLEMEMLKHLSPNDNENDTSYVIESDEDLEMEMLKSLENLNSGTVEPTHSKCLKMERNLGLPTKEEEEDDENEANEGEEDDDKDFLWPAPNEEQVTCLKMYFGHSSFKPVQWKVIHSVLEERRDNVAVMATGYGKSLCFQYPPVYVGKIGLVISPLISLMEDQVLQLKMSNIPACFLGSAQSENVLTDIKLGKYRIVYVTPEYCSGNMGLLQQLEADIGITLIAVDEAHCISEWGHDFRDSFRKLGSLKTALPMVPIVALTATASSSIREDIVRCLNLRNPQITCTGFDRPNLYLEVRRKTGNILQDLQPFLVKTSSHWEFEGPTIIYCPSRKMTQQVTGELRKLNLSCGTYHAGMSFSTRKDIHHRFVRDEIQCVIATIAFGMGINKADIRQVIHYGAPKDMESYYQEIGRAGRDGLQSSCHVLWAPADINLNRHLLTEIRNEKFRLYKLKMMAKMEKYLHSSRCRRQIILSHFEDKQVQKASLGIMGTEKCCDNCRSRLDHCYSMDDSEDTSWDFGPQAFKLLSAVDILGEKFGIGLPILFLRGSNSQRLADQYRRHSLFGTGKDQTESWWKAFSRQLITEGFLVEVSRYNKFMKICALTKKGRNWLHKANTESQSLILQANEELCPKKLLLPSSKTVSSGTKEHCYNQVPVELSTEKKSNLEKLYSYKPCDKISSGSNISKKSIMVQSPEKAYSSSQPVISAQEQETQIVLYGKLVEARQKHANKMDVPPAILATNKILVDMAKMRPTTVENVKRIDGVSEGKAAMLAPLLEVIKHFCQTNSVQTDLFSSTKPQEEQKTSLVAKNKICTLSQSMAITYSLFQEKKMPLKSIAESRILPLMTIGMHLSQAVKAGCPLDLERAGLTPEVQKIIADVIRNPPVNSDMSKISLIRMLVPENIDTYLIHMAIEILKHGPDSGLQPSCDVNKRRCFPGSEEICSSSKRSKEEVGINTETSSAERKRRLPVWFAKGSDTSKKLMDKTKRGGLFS
Assay: Inhibition of WRN (unknown origin) by gel-based DNA unwinding assay
Binary label based on IC50 with cut-off 2000 nM: below gives rule met, not below gives rule not met.

{"columns": ["smiles-notation", "label-class"],
 "data": [
  ["O=C(Nc1ccc(Br)c(Br)c1)Nc1nnc(-c2ccncc2)s1", "rule not met"],
  ["O=C(Nc1ccc(Cl)c(Cl)c1)Nc1nnc(-c2ccncc2)s1", "rule not met"]
]}

Q. Is the reported IC50 for O=C(Nc1ccc(F)c(C(F)(F)F)c1)Nc1nnc(-c2ccncc2)s1 strictly below 2000 nM?
A. rule not met

Q. Is the reported IC50 for N#Cc1cc(NC(=O)Nc2nnc(-c3ccncc3)s2)ccc1Cl strictly below 2000 nM?
A. rule met

Q. Is the reported IC50 for N#Cc1cc(NC(=O)Nc2nnc(-c3ccncc3)s2)ccc1-c1cn[nH]c1 strictly below 2000 nM?
A. rule not met

Q. Is the reported IC50 for N#Cc1cc(NC(=O)Nc2nnc(-c3ccncc3)s2)ccc1Br strictly below 2000 nM?
A. rule met

Q. Is the reported IC50 for N#Cc1cc(NC(=O)Nc2nnc(-c3ccncc3)s2)ccc1F strictly below 2000 nM?
A. rule not met

###

# Lookup of reported IC50 keyed by entry
Biological target: RecQ-like DNA helicase BLM (Homo sapiens, UniProt P54132)
Sequence (P54132 whole entry): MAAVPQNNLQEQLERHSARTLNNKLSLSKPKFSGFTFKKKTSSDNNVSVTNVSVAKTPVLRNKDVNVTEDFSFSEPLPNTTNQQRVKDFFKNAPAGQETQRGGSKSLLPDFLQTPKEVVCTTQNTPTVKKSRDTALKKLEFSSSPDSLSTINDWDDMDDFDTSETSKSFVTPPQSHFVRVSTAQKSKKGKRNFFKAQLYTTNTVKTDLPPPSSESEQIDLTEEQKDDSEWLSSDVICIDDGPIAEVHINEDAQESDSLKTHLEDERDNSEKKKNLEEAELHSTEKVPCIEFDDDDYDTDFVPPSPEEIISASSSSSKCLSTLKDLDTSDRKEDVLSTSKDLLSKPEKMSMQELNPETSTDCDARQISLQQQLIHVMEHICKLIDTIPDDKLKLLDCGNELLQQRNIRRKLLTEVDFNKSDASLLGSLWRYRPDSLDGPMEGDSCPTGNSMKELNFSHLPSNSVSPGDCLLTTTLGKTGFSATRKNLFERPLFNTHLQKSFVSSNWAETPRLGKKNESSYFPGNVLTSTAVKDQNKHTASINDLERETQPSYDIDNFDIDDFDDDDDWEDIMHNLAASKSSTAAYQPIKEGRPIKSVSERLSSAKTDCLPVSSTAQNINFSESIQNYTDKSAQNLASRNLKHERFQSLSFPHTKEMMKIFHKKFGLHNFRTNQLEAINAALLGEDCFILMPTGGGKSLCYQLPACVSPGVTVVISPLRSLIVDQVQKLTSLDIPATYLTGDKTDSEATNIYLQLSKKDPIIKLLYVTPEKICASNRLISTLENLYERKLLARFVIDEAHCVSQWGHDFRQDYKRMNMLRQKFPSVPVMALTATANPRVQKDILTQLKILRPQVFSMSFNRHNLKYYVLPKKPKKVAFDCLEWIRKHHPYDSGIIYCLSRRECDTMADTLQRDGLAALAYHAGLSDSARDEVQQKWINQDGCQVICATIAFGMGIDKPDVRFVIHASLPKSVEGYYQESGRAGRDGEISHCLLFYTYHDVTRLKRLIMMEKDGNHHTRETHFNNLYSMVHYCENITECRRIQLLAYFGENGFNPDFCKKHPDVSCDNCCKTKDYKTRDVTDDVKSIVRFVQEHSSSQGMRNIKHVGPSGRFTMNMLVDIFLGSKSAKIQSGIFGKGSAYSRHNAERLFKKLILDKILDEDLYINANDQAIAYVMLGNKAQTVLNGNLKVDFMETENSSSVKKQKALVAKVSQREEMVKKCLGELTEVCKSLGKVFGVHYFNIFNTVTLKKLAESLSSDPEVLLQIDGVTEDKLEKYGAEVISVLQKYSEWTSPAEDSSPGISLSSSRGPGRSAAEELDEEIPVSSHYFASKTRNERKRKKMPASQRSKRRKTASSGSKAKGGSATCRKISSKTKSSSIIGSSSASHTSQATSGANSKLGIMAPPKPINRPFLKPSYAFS
Test: Inhibition of BLM (unknown origin) by gel-based DNA unwinding assay
Conditions: read-out: IC50
Please give a number only; it is taken to be in µM.

Per the record, O=C(Nc1ccc(F)c(F)c1)Nc1nnc(-c2ccncc2)s1 has IC50 of 8.9

Per the record, O=C(Nc1ccc(F)cc1)Nc1nnc(-c2ccncc2)s1 has IC50 of 14.1

Per the record, O=C(Nc1ccc(Br)cc1)Nc1nnc(-c2ccncc2)s1 has IC50 of 12.6

###

# Lookup of reported pIC50 keyed by entry
Biological target: UniProt:P54132
Test: Inhibition of BLM (unknown origin) by gel-based DNA unwinding assay
Details: read-out: IC50
# pIC50 is unitless: minus log10 of the molar concentration; print number only

Here's what some known entries look like.
{"columns": ["smiles-notation", "value"],
 "data": [
  ["O=C(Nc1ccc(-n2cncn2)c(F)c1)Nc1nnc(-c2ccncc2)s1", 4.85],
  ["O=C(Nc1ccc(-n2cncn2)c(C(F)(F)F)c1)Nc1nnc(-c2ccncc2)s1", 4.44],
  ["N#Cc1cc(NC(=O)Nc2nnc(-c3ccncc3)s2)ccc1Cl", 7.00],
  ["O=C(Nc1ccc(Cl)c(Cl)c1)Nc1nnc(-c2cccnc2)s1", 5.46]
]}

Continue with the compound presented below.
Per the record, N#Cc1ccc(NC(=O)Nc2nnc(-c3ccncc3)s2)cc1C(F)(F)F has pIC50 of 5.25
